molecular target: ScBzz1-D2; test: SPOT peptide array binding signal intensity (averaged, normalized) (arbitrary units (background-subtracted, floor 0; scale differs between SH3 domains)); higher = stronger binding of the SH3 domain to the peptide
endpoint.label: SPOT peptide array binding signal intensity

// known answers, use as guide
TSIEIPKRSPLRFTS : 1
QNTPPLPPKPKSPHL : 4
EVTPKVPERPSRRKT : 11.8

Please give the measured SPOT peptide array binding signal intensity for this binder: TYNRTAFQIPGDQSI 13.5

Note, next up: ILARAILTIPRVLDK 299

Note, next up: FIRKRAPTPPAPSRS 53
